- Test system: gramicidin D channels in DC22:1PC lipid vesicles (bilayer-modifying potency)
- test.name: initial Tl+ fluorescence quench rate relative to no-drug control (NormRate, gramicidin monomer-dimer shift) (ratio (fold of control)); higher = stronger bilayer-modifying effect (equilibrium shifted toward conducting dimers), active = 1.5 or more
- experimental.setup: 10 µM; lipid concentration 50 µM; temperature: 25 °C
Documented initial Tl+ fluorescence quench rate across a set of molecules
# output: bare number, no unit

Some solved cases for reference:
Form field initial Tl+ fluorescence quench rate for item COc1ccc(-c2cc(NC(=O)c3ccc(F)cc3Cl)ccc2OC)cc1 on gramicidin D channels in DC22:1PC lipid vesicles (bilayer-modifying potency): 2.04

Form field initial Tl+ fluorescence quench rate for item COc1cc(C2=NCCN2)ccc1-n1cc(-c2cccc(C3=NCCN3)c2)nn1 on gramicidin D channels in DC22:1PC lipid vesicles (bilayer-modifying potency): 1.15

Form field initial Tl+ fluorescence quench rate for item Nc1ccc(C(=O)Nc2ccc(-c3nc4ccccc4o3)cc2)cc1 on gramicidin D channels in DC22:1PC lipid vesicles (bilayer-modifying potency): 1.1

Form field initial Tl+ fluorescence quench rate for item Nc1ncnc2c1c(Cc1cccc3ccccc13)nn2CC1CCNCC1 on gramicidin D channels in DC22:1PC lipid vesicles (bilayer-modifying potency): 1.15

Form field initial Tl+ fluorescence quench rate for item CCCn1c(NC(=O)c2ccc3ccccc3n2)nc2ccccc21 on gramicidin D channels in DC22:1PC lipid vesicles (bilayer-modifying potency): 1.4

Next:
Form field initial Tl+ fluorescence quench rate for item Cc1cccnc1NC(=O)c1cccc(OCc2c(C)noc2C)c1 on gramicidin D channels in DC22:1PC lipid vesicles (bilayer-modifying potency): 1.07

Form field initial Tl+ fluorescence quench rate for item Cc1cc2nc(NC(=O)C(C)(C)C)nc(Cl)c2n1Cc1ccc(Cl)cc1 on gramicidin D channels in DC22:1PC lipid vesicles (bilayer-modifying potency): 1.77

Form field initial Tl+ fluorescence quench rate for item CC[C@H](C)NC(=O)c1ccc(NC(=O)C2(c3ccccc3)CCCC2)cc1 on gramicidin D channels in DC22:1PC lipid vesicles (bilayer-modifying potency): 1.75

Form field initial Tl+ fluorescence quench rate for item CNCC[C@H](Oc1ccc(C(F)(F)F)cc1)c1ccccc1 on gramicidin D channels in DC22:1PC lipid vesicles (bilayer-modifying potency): 1.41

Form field initial Tl+ fluorescence quench rate for item COc1ccc(-c2cncc3ccc(C(=O)NCCCn4ccnc4)nc23)cc1 on gramicidin D channels in DC22:1PC lipid vesicles (bilayer-modifying potency): 1.03

----------
- System: gramicidin D channels in DC22:1PC lipid vesicles (bilayer-modifying potency)
- test.name: initial Tl+ fluorescence quench rate relative to no-drug control (NormRate, gramicidin monomer-dimer shift) (ratio (fold of control)); higher = stronger bilayer-modifying effect (equilibrium shifted toward conducting dimers), active = 1.5 or more
- experimental.setup: 10 µM; lipid concentration 50 µM; temperature: 25 °C
Pick one and only one: true = active, false = inactive

Just curious, what result did Oc1c(I)cc(I)c2cccnc12 get here?
false

Just curious, what result did C[C@@]1(COc2ccc(N3CCC(Oc4ccc(OC(F)(F)F)cc4)CC3)cc2)Cn2cc([N+](=O)[O-])nc2O1 get here?
false

Just curious, what result did Cc1cnc(CCNC(=O)c2cc(-c3ccc(Cl)cc3)cs2)[nH]1 get here?
false

Just curious, what result did O=C(C1CCN(c2nnnn2-c2ccccc2)CC1)N1CCc2ccccc2C1 get here?
false

Just curious, what result did [H]/N=C(\N)c1ccc(-n2cc(-c3cc(/C(N)=N/[H])ccc3OC)nn2)cc1 get here?
false

Next:
Just curious, what result did O=C(Nc1c(O)cccc1-c1nc2c(C(=O)O)cccc2o1)c1cc(-c2ccccc2)on1 get here?
false

Just curious, what result did COc1cccc2c(C)nc(N=C(N)N)nc12 get here?
false

Just curious, what result did CCOc1ccccc1C(=O)Nc1cccc(-c2nc3ncccn3c2C)c1 get here?
false

Just curious, what result did C[C@@H](c1cc(Cl)cc(Cl)c1)N(C)c1ncc2c(N)nc(N)nc2n1 get here?
true

Just curious, what result did Cc1cc2ccccc2n1CC(=O)N1C[C@@H](C(=O)N2CCCCC2)Oc2ccccc21 get here?
true

Just curious, what result did COc1ccc(C2=NN(C3CCCCCC3)C(=O)[C@@H]3CC=CC[C@H]23)cc1OCCCCOc1ccc(-c2nn[nH]n2)cc1 get here?
true

Just curious, what result did C[C@@H]1[C@H](O)[C@@H](C)/C=C/C=C/C=C/C=C/C=C/C=C/C=C/[C@H](O[C@@H]2O[C@H](C)[C@@H](O)[C@H](N)[C@@H]2O)C[C@@H]2O[C@](O)(C[C@@H](O)C[C@@H](O)[C@H](O)CC[C@@H](O)C[C@@H](O)CC(=O)O[C@H]1C)C[C@H](O)[C@H]2C(=O)O get here?
false

Just curious, what result did CCOC(=O)c1noc(N)c1-c1ccccc1 get here?
false

Just curious, what result did COc1cccc(CC(=O)N2CCC(n3c(C)nc4ccc(F)cc43)CC2)c1 get here?
false

Just curious, what result did Cc1ccc(NC(=O)C[C@@H]2COc3ccccc3O2)cc1Cl get here?
true

Just curious, what result did Cc1ccc(NC(=O)c2cc(S(=O)(=O)NC(C)(C)C)ccc2C)nc1 get here?
false

Just curious, what result did c1csc(-c2cnc3sc(NCC4CCOCC4)nn23)c1 get here?
true

Just curious, what result did C[C@H](C(N)=O)N1CCCC[C@H]1c1ccc(OCc2cccc(F)c2)cc1 get here?
false
